# experimentNotes: qHTS of pediatric cancer cell lines to identify multiple opportunities for drug repurposing: Primary screen for SJ-GBM2 cells (AID 1347091)
# assayConditions: SJ-GBM2 viability, CellTiter-Glo luminescence, 48 h; series mostly up to 46 µM
# Experimental: Drug repurposing or repositioning has been offered as a strategy for drug development in oncology programs. […] [1] Shen, M et al. Quantitative high-throughput phenotypic screening of pediatric cancer cell lines identifies multiple opportunities for drug repurposing. […] Cells were assayed in growth media at a density of 500-1,000 cells/well. […] After a 15 min incubation at room temperature, samples were analyzed for luminescence intensity using a ViewLux High-throughput CCD imager equipped with clear filters.
Results filed as inconclusive are left out. Activity calls are given as the source filed them. The call rests on the fitted dose curve; in most records, active means well fitted cell-killing curve with a large enough effect; inconclusive means small, poorly fitted or top-dose-only effect; inactive means no such curve, though single readings can be large or run the other way.
Lab note: assign the record to one of T (active), F (inactive)

CC(C)c1c(C(=O)Nc2ccccc2)c(-c2ccccc2)c(-c2ccc(F)cc2)n1CC[C@H](O)C[C@@H](O)CC(=O)O = T
C[C@@H](O)[C@H]1C(=O)N2C(C(=O)OCOC(=O)C(C)(C)C)=C(SC3CN(C4=NCCS4)C3)[C@H](C)[C@H]12 = F
CNC(=O)[C@H](CC1=CN=C2C=CCC=C12)NC(=O)[C@@H](CC(=O)NO)CC(C)C = F

Status in this test for CN(C)c1nc(Cc2ccc(NC(=O)c3ccc(C(F)(F)F)cc3)cc2)nc(N(C)C)c1CC(=O)O ?
F

Try CNC(=O)[C@H](Cc1ccccc1)NC(=O)[C@H](CC(C)C)[C@H](CSc1cccs1)C(=O)NO next.
F

Try CSc1cccc(Nc2ncc3cc(-c4c(Cl)cccc4Cl)c(=O)n(C)c3n2)c1 next.
T

Try C=C1[C@H](n2cnc3c(=O)[nH]c(N)nc32)C[C@H](O)[C@H]1CO next.
T

Try CCCCC[C@H](O)C=C[C@H]1[C@H](O)CC(=O)[C@H]1CCCCCCC(=O)O next.
F

====

Listed here: items and their measured Potency.
# studySystem: Cytochrome P450 2C9 (Homo sapiens)
# experimentNotes: Cytochrome P450 family 2 subfamily C member 9 (CYP2C9) small molecule antagonists: luciferase biochemical (cell-free) qHTS assay (AID 1645842); further: potency means the concentration at half of the fitted maximal effect; nearly all actives have a fitted effect of over 55% in size
# assayConditions: P450-Glo CYP2C9 enzyme assay, luciferin luminescence; series mostly up to 57.4 µM
Results filed as inconclusive are left out. Calls of active or inactive are those of the source. Calls come from the whole dose curve; as a rule, active = well fitted inhibition curve with a large enough effect in the repeat runs; inconclusive = weak or mixed curves; inactive = no such curve, though single readings can be large or run the other way.

Consider the worked cases shown below.
C[C@H](c1ccc(F)cc1CCCC(=O)O)N(c1cc(F)ccc1F)S(=O)(=O)c1ccc(Cl)cc1 = 8.49 µM (active)
Fc1ccc(CNc2ncnc3ccc(F)cc23)cc1 = 8.49 µM (active)
CNC(=O)c1cc(Oc2ccc(NC(=O)Nc3ccc(Cl)c(C(F)(F)F)c3)c(F)c2)ccn1 = 9.52 µM (active)
CN(C)c1ccc(-c2nc3ncc(Cl)c(N4CCN(CC(=O)Nc5nccs5)CC4)c3[nH]2)cc1 = 0.536 µM (active)

Now turn to the next molecule.
Hi! What's the reported Potency for CC(C)(O)CC(=O)NCCn1ccc2ncnc(Nc3ccc(Oc4cccc(C(F)(F)F)c4)c(Cl)c3)c21 on Cytochrome P450 2C9 (Homo sapiens)?
5.35 µM (active)

====

# experimentNotes: Quantitative High-Throughput drug screen in 47 multiple myeloma cell lines against the NCATS MIPE library collection: XG1_PLB cell viability assay (AID 1919866); further: potency means the concentration at half of the fitted maximal effect; nearly all actives have a fitted effect of over 35% in size
# assayConditions: CellTiter-Glo ATP, 48 h; series mostly up to 45.8 µM
Inconclusive results are not listed. The source made the active and inactive calls. Calls follow the shape of the dose curve; as a rule, active = well fitted cell-killing curve with a large enough effect; inconclusive = small, poorly fitted or top-dose-only effect, or effect the other way; inactive = no such curve, though single readings can be large or run the other way.
Lab note: assign the record to one of active, inactive

Solved cases below.
Cc1cnc(-c2cc(N3CCN(C(=O)CCS(C)(=O)=O)CC3)ncc2Cl)c(C)c1 = active
COc1cc2c(cc1Cc1cccc(Cl)c1F)c(=O)c(C(=O)O)cn2[C@H](CO)C(C)C = active

Next:
Status in this test for Nc1[nH]nc2nnc(-c3c(-c4ccccc4)nn4ccccc34)cc12 ?
active

====

Listed here: items and their measured growth, % of control.
# experimentNotes: qHTS profiling of the MIPE4 collection as inhibitors of Plasmodium falciparum (HB3) proliferation (AID 743347);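 further: plate controls were DMSO vehicle wells for no effect and artemisinin wells for full effect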
# assayConditions: P. falciparum HB3 in erythrocytes, SYBR Green DNA, 72 h; at 28.5 µM (top of the series) unless noted
Response body: numeric value in %, unit text excluded.

Consider the worked cases shown below.
O=[N+]([O-])c1ccc(Nc2ccccc2-c2ccccc2)c2nonc12 = 75.1
COc1cc(Cl)cn2c(-c3cccc(NC4CNC4)n3)cnc12 = 42.7
O=C(O)CCC=CCC[C@@H]1[C@H](N2CCCCC2)[C@@H](O)C[C@@H]1OCc1ccc(-c2ccccc2)cc1 = 63
c1cc(OCCN2CCCCC2)cc(-c2n[nH]c3ccc(-c4ncn[nH]4)cc23)c1 = 3.58
CN(C)CCOc1cc(-c2cn[nH]c2)ccc1NC(=O)C1COc2ccccc2O1 (stereo not drawn) = 38.6
CCNC(=O)Nc1ccc(Oc2ncnc(N)c2C=NOC)cc1Cl = 50.6
CC(C)C[C@@H](C(=O)N[C@H](C(=O)OC1CCCC1)c1ccccc1)[C@H](O)C(=O)NO = 7.8
CN(C)c1ccccc1CN1CCCN(Cc2ccccc2N(C)C)C1c1ccncc1 = 12.9

Using the record for Cc1ccccc1C(C(=O)NC1CCCCC1)N(C(=O)CNc1ccc(C#N)cc1)c1cccc(F)c1 (stereo not drawn) , report its growth, % of control.
530

====

# experimentNotes: Quantitative High-Throughput drug screen in 47 multiple myeloma cell lines against the NCATS MIPE library collection: OPM1_PLB cell viability assay (AID 1918989); further: nearly all actives have a fitted effect of over 40% in size; further: potency means the concentration at half of the fitted maximal effect
# assayConditions: CellTiter-Glo, 48 h; series mostly up to 45.8 µM
Results filed as inconclusive are left out. Active and inactive are the calls of the source. Calls follow the shape of the dose curve; as a rule, active = well fitted cell-killing curve with a large enough effect; inconclusive = small, poorly fitted or top-dose-only effect, or effect the other way; inactive = no such curve, though single readings can be large or run the other way.
readoutLabel: Potency

Consider the worked cases shown below.
CC(=O)Nc1cccc(-n2c(=O)n(C3CC3)c(=O)c3c(Nc4ccc(I)cc4F)n(C)c(=O)c(C)c32)c1 = 0.296 µM (active)
Cc1ccc(NC(=O)Nc2cc(C(F)(F)F)ccc2F)cc1Nc1ccc2c(c1)NC(=O)C2=Cc1ccc[nH]1 = 4.69 µM (active)
CCC(C)SSc1ncc[nH]1 (centres undefined) = 3.72 µM (active)
Oc1ccc(C=Cc2cc(O)cc(O)c2)cc1 = inactive
COc1ccc2c(c1)c(C1=C(c3c[nH]c4ccccc34)C(=O)NC1=O)cn2CCCN(C)C = 23.5 µM (active)
COc1cc(F)c(C(C)C)cc1-c1ccc(C(F)(F)F)cc1CN1C(=O)O[C@H](c2cc(C(F)(F)F)cc(C(F)(F)F)c2)[C@@H]1C = inactive

Using the record for CS(=O)(=O)c1ccc(C2=C(c3ccccc3)C(=O)OC2)cc1 , report its Potency.
inactive

Try CNC(=O)c1cc(COc2nnc(Nc3ccc(Cl)cc3)c3ccoc23)ccn1 next.
inactive

Try CO[C@H]1O[C@@H]2O[C@@]3(C)CC[C@@H]4[C@@H](C)CC[C@@H]([C@H]1C)[C@@]24OO3 next.
6.62 µM (active)

====

# experimentNotes: Quantitative High-Throughput drug screen in 47 multiple myeloma cell lines against the NCATS MIPE library collection: XG6_PLB cell viability assay (AID 1919865); further: potency means the concentration at half of the fitted maximal effect; nearly all actives have a fitted effect of over 40% in size
# assayConditions: XG6 myeloma viability, CellTiter-Glo ATP luminescence, 48 h; series mostly up to 45.8 µM
Results filed as inconclusive are left out. The source made the active and inactive calls. Calls follow the shape of the dose curve; as a rule, active = well fitted cell-killing curve with a large enough effect; inconclusive = small, poorly fitted or top-dose-only effect, or effect the other way; inactive = no such curve, though single readings can be large or run the other way.
Lab note: assign the record to one of active, inactive

Solved cases below.
CCN(CC)CCCCNc1nc2cc(Cl)c(Cl)cc2nc1-c1ccc(-c2cccs2)s1 = active
NCc1c[nH]c(=S)n1[C@H]1CCc2c(F)cc(F)cc2C1 = active
Oc1cc(O)cc(C=Cc2ccc(O)c(O)c2)c1 = active
O=C(CCCN1CCN(c2ccc(F)cc2)CC1)NC1c2ccccc2CSc2ccccc21 (stereo not given) = active
CN(C(Cc1ccc(OS(=O)(=O)c2cccc3cnccc23)cc1)C(=O)N1CCN(c2ccccc2)CC1)S(=O)(=O)c1cccc2cnccc12 (stereo not given) = active

Status in this test for CCOC(=O)[C@@H](N)CCC(=O)N[C@@H](CSCc1ccccc1)C(=O)N[C@@H](C(=O)OCC)c1ccccc1 ?
active

Try CC(=O)O[C@]1(C(C)=O)CC[C@H]2[C@@H]3C=C(Cl)C4=CC(=O)[C@@H]5C[C@H]5[C@]4(C)[C@@H]3CC[C@@]21C next.
active

Try N#CC(c1ccc(Cl)cc1)c1c(Cl)cc(-n2ncc(=O)[nH]c2=O)cc1Cl (stereo not given) next.
active

Try CNC(=O)c1ccc2c(C(=Nc3cccc(CN(C)C)c3)c3ccccc3)c(O)[nH]c2c1 next.
active

====

# experimentNotes: qHTS of pediatric cancer cell lines to identify multiple opportunities for drug repurposing: Primary screen for NB1643 cells (AID 1347099); further: nearly all actives have a fitted effect of over 50% in size
# assayConditions: NB1643 neuroblastoma viability, CellTiter-Glo luminescence, 48 h; series mostly up to 46 µM
Results filed as inconclusive are left out. The source made the active and inactive calls. Calls follow the shape of the dose curve; as a rule, active = well fitted cell-killing curve with a large enough effect; inconclusive = small, poorly fitted or top-dose-only effect; inactive = no such curve, though single readings can be large or run the other way.
Lab note: assign the record to one of active, inactive

CN(C)c1nc(Cc2ccc(NC(=O)c3ccc(C(F)(F)F)cc3)cc2)nc(N(C)C)c1CC(=O)O = inactive
CC(C)[C@H](O)C(=O)N[C@@H](C)C(=O)N[C@@H]1C(=O)N(C)CCc2ccccc21 = active
C[C@]12CCC3=C4CCC(=O)C=C4CC[C@@H]3[C@H]1CC[C@@]2(O)CC#N = inactive

Status in this test for CCC(=C(CC)c1ccc(O)cc1)c1ccc(O)cc1 ?
active

Try O=C(O)C1=NC(C(=O)O)CC(C=CN2c3cc(O)c(OC4OC(CO)C(O)C(O)C4O)cc3CC2C(=O)O)=C1 (stereo not given) next.
inactive
